# test: chemical genetic growth profiling, strain panel (AID 1159580);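 note: tested at 20 µM; growth read once vehicle control cultures reached saturation at 30 °C; 1 = growth at the plate median or of vehicle wells; lower values mean less growth of the strain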
# condition.description: S. cerevisiae deletion strains, growth OD, locus YLR342W, strain FKS1 (second series), hits give low values
In all, about 5,500 compounds went through this assay and about 2,000 (36%) were called active. About 18% were inconclusive and are not listed. The list shows a part of the results.
So basically, if normalized growth comes in under 1 it's 1, and if it's 1 or more it's 0.

{"smiles.structure": "Cc1cc(=O)c2c(O)c3c(cc2o1)OC(C)(C)CC3", "category": 0}
{"smiles.structure": "Cc1cc2cc3c(C)cc(=O)oc3c(C)c2o1", "category": 1}
{"smiles.structure": "Cc1cc(=O)c2c(o1)-c1c(cc(O)c(O)c1C(=O)O)OC2", "category": 1}

# check: normalized growth < 1 for CC1=CCc2c(cc3oc(C)cc(=O)c3c2O)OC1
1

* * *

# test: chemical genetic growth profiling, strain panel (AID 1159580)
# condition.description: S. cerevisiae deletion strains, growth OD, locus YOR070C, strain gyp1
The whole screen tested about 5,500 compounds, of which about 2,000 (36%) were called active. Roughly 18% stayed inconclusive and do not appear here. No stated cut-off is given here; in the data, active means normalized growth mostly below about 0.91 (no sharp cut-off); inconclusive means no clear call, values can overlap the other calls; inactive means mostly above about 0.92. The list shows a part of the results.
One label from this list, please: active, inactive

A selection of reference data follows.
{"compound": "FC(F)(F)C(Cl)Br (centres undefined)", "category": "inactive"}
{"compound": "O=C1CCc2cc(OCCCCc3nnnn3C3CCCCC3)ccc2N1", "category": "inactive"}

Hi team, can someone confirm the assay call for COc1ccc(-c2cc(=O)c3ccccc3o2)cc1OC ?
active

Hi team, can someone confirm the assay call for C=CCc1ccccc1OCC(O)CNC(C)C (centres undefined) ?
inactive

Hi team, can someone confirm the assay call for CC(=O)Oc1c(-c2ccccc2)oc2c(CC=C(C)C)c3c(c(OC(C)=O)c2c1=O)C=CC(C)(C)O3 ?
active

Hi team, can someone confirm the assay call for COc1cc([C@@H]2c3cc4c(cc3[C@H](O)[C@H]3COC(=O)[C@@H]23)OCO4)cc(OC)c1OC ?
inactive

* * *

Answer each item with its documented normalized growth.
# test: chemical genetic growth profiling, strain panel (AID 1159580)
# condition.description: S. cerevisiae deletion strains, growth OD, locus YJL166W, strain qcr8, hits give low values
The whole screen tested about 5,500 compounds, of which about 2,000 (36%) were called active. Another 18% or so got no clear call; they are omitted. The list shows a part of the results.
Numbers only.

{"smiles.structure": "CN(C)CC/C=C1/c2ccccc2COc2ccccc21", "normalized growth": 1.01}
{"smiles.structure": "O=c1cc(-c2cccc(O)c2)oc2ccc(O)cc12", "normalized growth": 0.95}
{"smiles.structure": "CC1=NCCc2c1[nH]c1cc(O)ccc21", "normalized growth": 1.01}
{"smiles.structure": "CNCCC=C1c2ccccc2CCc2ccccc21", "normalized growth": 0.989}
{"smiles.structure": "O=c1cc(-c2ccc(O)cc2)oc2ccc(O)cc12", "normalized growth": 0.977}
{"smiles.structure": "O=c1cc(-c2ccc(O)c(O)c2)oc2ccccc12", "normalized growth": 0.932}

Alright, here's another compound for you.
Memo: CN(C)CCC=C1c2ccccc2CCc2ccccc21 , reported normalized growth: 0.988

* * *

Answer each item with its documented normalized growth.
# test: chemical genetic growth profiling, strain panel (AID 1159580);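 note: tested at 20 µM; growth read once vehicle control cultures reached saturation at 30 °C; 1 = growth at the plate median or of vehicle wells; lower values mean less growth of the strain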
# condition.description: S. cerevisiae deletion strains, growth OD, locus YDR001C, strain nth1, hits give low values
About 2,000 (36%) of roughly 5,500 compounds were called active. Roughly 18% stayed inconclusive and do not appear here. Some of the results follow.
Answers are plain numbers.

Some molecules with recorded normalized growth:
{"smiles.structure": "COc1ccc(-c2cc(=O)c3c(OC(C)=O)cc(OC(C)=O)cc3o2)cc1", "normalized growth": 0.987}
{"smiles.structure": "N[C@H](CO)Cc1ccccc1", "normalized growth": 1.02}
{"smiles.structure": "CC(=O)Oc1cc(-c2coc3cc(OC(C)=O)c(OC(C)=O)c(OC(C)=O)c3c2=O)cc(OC(C)=O)c1OC(C)=O", "normalized growth": 0.977}
{"smiles.structure": "CCN1CCN(c2cc3c(cc2F)c(=O)c(C(=O)O)cn3C2CC2)CC1", "normalized growth": 1.01}

Alright, here's another molecule for you.
Memo: O=C(O)c1cn(-c2ccc(F)cc2)c2cc(N3CCNCC3)c(F)cc2c1=O , reported normalized growth: 0.952

* * *

# test: chemical genetic growth profiling, strain panel (AID 1159580);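 note: tested at 20 µM; growth read once vehicle control cultures reached saturation at 30 °C; 1 = growth at the plate median or of vehicle wells; lower values mean less growth of the strain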
# condition.description: S. cerevisiae deletion strains, growth OD, locus YHR030C, strain SLT2
Hit rate of the full screen: of about 5,500 compounds, about 2,000 (36%) were called active. Roughly 18% stayed inconclusive and do not appear here. No stated cut-off is given here; in the data, active means normalized growth mostly below about 0.91 (no sharp cut-off); inconclusive means no clear call, values can overlap the other calls; inactive means mostly above about 0.92. The list shows a part of the results.
One label from this list, please: 1 (active), -1 (inactive)

A selection of reference data follows.
{"molecule": "COc1cc(O)c2c(=O)c(-c3ccc(O)cc3)coc2c1", "category": 1}
{"molecule": "Fc1ccc(N/N=C\\Cc2nnnn2-c2ccccc2)c(F)c1", "category": 1}
{"molecule": "C#CCOS(=O)OC1CCCCC1Oc1ccc(C(C)(C)C)cc1 (centres undefined)", "category": -1}

Hi team, can someone confirm the assay call for CCCCCCCCCCCCCCCCCCCCCCO ?
-1

Hi team, can someone confirm the assay call for C/C(=C\C(=O)OCCCCCCCCC(=O)O)C[C@@H]1OC[C@H](C[C@@H]2O[C@H]2[C@@H](C)[C@H](C)O)[C@@H](O)[C@H]1O ?
-1

Hi team, can someone confirm the assay call for CCC(C)COC(=O)/C=C/c1ccc(N=Cc2ccc(OC)cc2)cc1 (centres undefined) ?
1

Hi team, can someone confirm the assay call for N#Cc1ccc([N+](=O)[O-])s1 ?
1

Hi team, can someone confirm the assay call for C=C1C(N)CC2CC1C2(C)C (centres undefined) ?
-1

Hi team, can someone confirm the assay call for Cc1ccc(C(=O)c2ccccc2[N+](=O)[O-])cc1 ?
-1

Hi team, can someone confirm the assay call for CS(=O)(=O)c1ccc([C@@H](O)[C@H](CF)NC(=O)C(Cl)Cl)cc1 ?
-1

Hi team, can someone confirm the assay call for COC(=O)c1ccc(Cl)cc1N(Cc1ccccc1)S(C)(=O)=O ?
-1

Hi team, can someone confirm the assay call for C=CCCCCCCCCCCCC(O)CC(O)CO (centres undefined) ?
-1

Hi team, can someone confirm the assay call for NCCc1cccc(O)c1 ?
-1

Hi team, can someone confirm the assay call for N=c1ccc2nc3c(Cl)c4c(c(Cl)c3oc-2c1S(=O)(=O)O)Nc1ccc(N)c(S(=O)(=O)O)c1O4 ?
-1

Hi team, can someone confirm the assay call for CC(C)(C)c1cc2nc(C(F)(F)F)cc(NNC(=O)c3ccc(Cl)cc3)n2n1 ?
-1

Hi team, can someone confirm the assay call for N#Cc1c(Br)cnn1Cc1cc(C(F)(F)F)cc(C(F)(F)F)c1 ?
-1

Hi team, can someone confirm the assay call for CC(N)Cc1ccc(O)cc1 (centres undefined) ?
-1

Hi team, can someone confirm the assay call for OC[C@H]1O[C@H](OCCCc2ccc(O)cc2)[C@H](O)[C@@H](O)[C@@H]1O ?
-1

Hi team, can someone confirm the assay call for CCCCOc1cc(CC2CNC(=O)N2)ccc1OC (centres undefined) ?
-1

Hi team, can someone confirm the assay call for NCCc1c[nH]c2ccc(O)cc12 ?
-1

Hi team, can someone confirm the assay call for COc1ccc(-c2coc3cc(OC)cc(O)c3c2=O)cc1 ?
-1

Hi team, can someone confirm the assay call for CC(C)(C)OC(=O)NC1CCN(C(=O)c2ccc(Cl)cc2Cl)CC1 ?
-1

Hi team, can someone confirm the assay call for C/C(=N/Nc1nc(C(C)(C)C)cs1)c1ccc(Cl)c(Cl)c1 ?
1

Hi team, can someone confirm the assay call for N#CCCCCOc1ccc2c(=O)cc(-c3ccccc3)oc2c1 ?
-1

* * *

# test: chemical genetic growth profiling, strain panel (AID 1159580);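 note: tested at 20 µM; growth read once vehicle control cultures reached saturation at 30 °C; 1 = growth at the plate median or of vehicle wells; lower values mean less growth of the strain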
# condition.description: S. cerevisiae deletion strains, growth OD, locus YKL085W, strain MDH1, hits give low values
The whole screen tested about 5,500 compounds, of which about 2,000 (36%) were called active. Another 18% or so got no clear call; they are omitted. Some of the results follow.
Answer each item with its documented normalized growth.
Give bare numbers.

Some compounds with recorded normalized growth:
{"compound": "COc1ccc(-c2cc(=O)c3ccccc3o2)cc1", "normalized growth": 0.914}
{"compound": "CN(C)CC/C=C1/c2ccccc2COc2ccccc21", "normalized growth": 1}

Provide normalized growth values for the following items, in order.
1. C=CCCCCCCCCCCCC(O)CC(O)CO (stereo unspecified) (tested in a mixture with another compound)
2. C=C1C2CC[C@@]3(C)[C@H](c4ccoc4)OC(=O)C[C@]13O[C@H]1CC(=O)C(C)(C)[C@H](C(O)C(=O)OC)[C@@]21C (stereo partly specified)
3. Cn1c(=O)c2[nH]c(C3CCCC3)nc2n(C)c1=O
4. CN(C)CCC=C1c2ccccc2CCc2ccccc21
5. CNCCC=C1c2ccccc2CCc2ccccc21
6. CN1CCN2c3ccccc3Cc3ccccc3C2C1 (stereo unspecified)

1. 0.343
2. 1.01
3. 1.05
4. 0.996
5. 1
6. 0.987

Provide normalized growth values for the following items, in order.
1. CSc1ccc2c(c1)C(N1CCN(C)CC1)Cc1ccccc1S2 (stereo unspecified)
2. CC(C)(Oc1ccc(Cl)cc1)C(=O)O
3. COc1cc([C@@H]2c3cc4c(cc3C(O[C@@H]3O[C@@H]5CO[C@@H](c6cccs6)OC5[C@H](O)[C@H]3O)C3COC(=O)[C@@H]32)OCO4)cc(OC)c1O (stereo partly specified)

0.987
0.981
1
